Recorded values, source ChEMBL document CHEMBL4359906.

# fractional inhibitory concentration index (FICI) per entry
Tested on: Klebsiella pneumoniae
procedure text: Potentiation of rifampicin-induced antibacterial activity against Klebsiella pneumoniae ATCC 700603 assessed as FICI after 18 hrs by checker board assay
Assay type: functional
Where a SMILES comes first, the peptide text is derived from it.
measured attribute: fractional inhibitory concentration index (FICI)

1. CCCCCCCCCCCC(=O)NCC(=O)N[C@@H](CC(C)C)C(=O)N[C@@H](CC(C)C)C(=O)N[C@H](CCCCN)C(=O)N[C@@H](CCCNC(=N)N)C(=O)N[C@H](C(=O)N[C@H](CCCCN)C(=O)N[C@H](C(=O)N[C@@H](CC(C)C)C(=O)N[C@@H](CC(C)C)C(N)=O)[C@@H](C)O)[C@@H](C)CC    0.5625
2. CC[C@H](C)[C@H](NC(=O)[C@H](CCCNC(=N)N)NC(=O)[C@H](CCCCN)NC(=O)[C@H](CC(C)C)NC(=O)[C@H](CC(C)C)NC(=O)CN)C(=O)N[C@@H](CCCCN)C(=O)N[C@H](C(=O)N[C@@H](CC(C)C)C(=O)N[C@@H](CC(C)C)C(N)=O)[C@@H](C)O [ANOPLIN] (H-GLLKRIKTLL-NH2)    0.125
3. CCCCCCCC(=O)NCC(=O)N[C@@H](CC(C)C)C(=O)N[C@@H](CC(C)C)C(=O)N[C@H](CCCCN)C(=O)N[C@@H](CCCNC(=N)N)C(=O)N[C@H](C(=O)N[C@H](CCCCN)C(=O)N[C@H](C(=O)N[C@@H](CC(C)C)C(=O)N[C@@H](CC(C)C)C(N)=O)[C@@H](C)O)[C@@H](C)CC    0.0625
4. CCCCCCCCCC(=O)NCC(=O)N[C@@H](CC(C)C)C(=O)N[C@@H](CC(C)C)C(=O)N[C@H](CCCCN)C(=O)N[C@@H](CCCNC(=N)N)C(=O)N[C@H](C(=O)N[C@H](CCCCN)C(=O)N[C@H](C(=O)N[C@@H](CC(C)C)C(=O)N[C@@H](CC(C)C)C(N)=O)[C@@H](C)O)[C@@H](C)CC    0.3125

---

Overview of recorded Activity for various compounds
Test system: Escherichia coli
procedure text: Disruption of membrane integrity in Escherichia coli ATCC 25922 assessed as membrane damage by measuring PI fluorescence at 2 times of MIC incubated for 1 hr by PI dye based flow cytometric analysis (reference value: 1.35%)
Format: functional
measured attribute: Activity (%)

1) CCCCCCCCCC(=O)NCC(=O)N[C@@H](CC(C)C)C(=O)N[C@@H](CC(C)C)C(=O)N[C@H](CCCCN)C(=O)N[C@@H](CCCNC(=N)N)C(=O)N[C@H](C(=O)N[C@H](CCCCN)C(=O)N[C@H](C(=O)N[C@@H](CC(C)C)C(=O)N[C@@H](CC(C)C)C(N)=O)[C@@H](C)O)[C@@H](C)CC    49.6
2) CCCCCCCC(=O)NCC(=O)N[C@@H](CC(C)C)C(=O)N[C@@H](CC(C)C)C(=O)N[C@H](CCCCN)C(=O)N[C@@H](CCCNC(=N)N)C(=O)N[C@H](C(=O)N[C@H](CCCCN)C(=O)N[C@H](C(=O)N[C@@H](CC(C)C)C(=O)N[C@@H](CC(C)C)C(N)=O)[C@@H](C)O)[C@@H](C)CC    64.6

---

System: Escherichia coli
procedure text: Potentiation of rifampicin-induced antibacterial activity against Escherichia coli ATCC 25922 assessed as FICI after 18 hrs by checker board assay
Assay type: functional
Where a SMILES comes first, the peptide text is derived from it.
Below is a list of entries, each paired with its recorded fractional inhibitory concentration index (FICI) value.
measured attribute: fractional inhibitory concentration index (FICI)

1. CCCCCCCC(=O)NCC(=O)N[C@@H](CC(C)C)C(=O)N[C@@H](CC(C)C)C(=O)N[C@H](CCCCN)C(=O)N[C@@H](CCCNC(=N)N)C(=O)N[C@H](C(=O)N[C@H](CCCCN)C(=O)N[C@H](C(=O)N[C@@H](CC(C)C)C(=O)N[C@@H](CC(C)C)C(N)=O)[C@@H](C)O)[C@@H](C)CC    0.0625
2. CC[C@H](C)[C@H](NC(=O)[C@H](CCCNC(=N)N)NC(=O)[C@H](CCCCN)NC(=O)[C@H](CC(C)C)NC(=O)[C@H](CC(C)C)NC(=O)CN)C(=O)N[C@@H](CCCCN)C(=O)N[C@H](C(=O)N[C@@H](CC(C)C)C(=O)N[C@@H](CC(C)C)C(N)=O)[C@@H](C)O [ANOPLIN] (H-GLLKRIKTLL-NH2)    0.125
3. CCCCCCCCCCCC(=O)NCC(=O)N[C@@H](CC(C)C)C(=O)N[C@@H](CC(C)C)C(=O)N[C@H](CCCCN)C(=O)N[C@@H](CCCNC(=N)N)C(=O)N[C@H](C(=O)N[C@H](CCCCN)C(=O)N[C@H](C(=O)N[C@@H](CC(C)C)C(=O)N[C@@H](CC(C)C)C(N)=O)[C@@H](C)O)[C@@H](C)CC    0.5625
4. CCCCCCCCCC(=O)NCC(=O)N[C@@H](CC(C)C)C(=O)N[C@@H](CC(C)C)C(=O)N[C@H](CCCCN)C(=O)N[C@@H](CCCNC(=N)N)C(=O)N[C@H](C(=O)N[C@H](CCCCN)C(=O)N[C@H](C(=O)N[C@@H](CC(C)C)C(=O)N[C@@H](CC(C)C)C(N)=O)[C@@H](C)O)[C@@H](C)CC    0.1875

---

procedure text: Selectivity index, ratio of MHC10 for human RBC to geometric mean of peptide MIC for gram negative bacteria
Format: toxicity
reported conditions: human red blood cells, read-out: Selectivity Index
Where a SMILES comes first, the peptide text is derived from it.
Collected selectivity ratio values appear next to each entry.
measured attribute: selectivity ratio

1) CCCCCCCCCC(=O)NCC(=O)N[C@@H](CC(C)C)C(=O)N[C@@H](CC(C)C)C(=O)N[C@H](CCCCN)C(=O)N[C@@H](CCCNC(=N)N)C(=O)N[C@H](C(=O)N[C@H](CCCCN)C(=O)N[C@H](C(=O)N[C@@H](CC(C)C)C(=O)N[C@@H](CC(C)C)C(N)=O)[C@@H](C)O)[C@@H](C)CC    5.33
2) CCCCCCCC(=O)NCC(=O)N[C@@H](CC(C)C)C(=O)N[C@@H](CC(C)C)C(=O)N[C@H](CCCCN)C(=O)N[C@@H](CCCNC(=N)N)C(=O)N[C@H](C(=O)N[C@H](CCCCN)C(=O)N[C@H](C(=O)N[C@@H](CC(C)C)C(=O)N[C@@H](CC(C)C)C(N)=O)[C@@H](C)O)[C@@H](C)CC    12.2
3) CCCCCCCCCCCC(=O)NCC(=O)N[C@@H](CC(C)C)C(=O)N[C@@H](CC(C)C)C(=O)N[C@H](CCCCN)C(=O)N[C@@H](CCCNC(=N)N)C(=O)N[C@H](C(=O)N[C@H](CCCCN)C(=O)N[C@H](C(=O)N[C@@H](CC(C)C)C(=O)N[C@@H](CC(C)C)C(N)=O)[C@@H](C)O)[C@@H](C)CC    1.14
4) CC[C@H](C)[C@H](NC(=O)[C@H](CCCNC(=N)N)NC(=O)[C@H](CCCCN)NC(=O)[C@H](CC(C)C)NC(=O)[C@H](CC(C)C)NC(=O)CN)C(=O)N[C@@H](CCCCN)C(=O)N[C@H](C(=O)N[C@@H](CC(C)C)C(=O)N[C@@H](CC(C)C)C(N)=O)[C@@H](C)O [ANOPLIN] (H-GLLKRIKTLL-NH2)    13.5

---

Tested on: Klebsiella pneumoniae
procedure text: Antibacterial activity against Klebsiella pneumoniae ATCC 700603 after 18 hrs by CLSI based broth microdilution method
Type: functional
reported conditions: Klebsiella pneumoniae, 700603, 18 h
Where a SMILES comes first, the peptide text is derived from it. Bridges are numbered along the chain shown (N, C = ends). [ ]: non-standard residue; d: D form. The star is where a group is joined. X1 = CC[C@H](C)CCCCC(=O)*; Dab = NCC[C@H](N)C(=O)O
measured attribute: MIC (µM)

1. CC[C@H](C)CCCCC(=O)N[C@@H](CCN)C(=O)N[C@H](C(=O)N[C@@H](CCN)C(=O)N[C@H]1CCNC(=O)[C@H]([C@@H](C)O)NC(=O)[C@H](CCN)NC(=O)[C@H](CCN)NC(=O)[C@H](CC(C)C)NC(=O)[C@@H](Cc2ccccc2)NC(=O)[C@H](CCN)NC1=O)[C@@H](C)O (X1-[Dab]T[Dab][Dab][Dab][dF]L[Dab][Dab]T; lactam 4-C)    8
2. CC[C@H](C)[C@H](NC(=O)[C@H](CCCNC(=N)N)NC(=O)[C@H](CCCCN)NC(=O)[C@H](CC(C)C)NC(=O)[C@H](CC(C)C)NC(=O)CN)C(=O)N[C@@H](CCCCN)C(=O)N[C@H](C(=O)N[C@@H](CC(C)C)C(=O)N[C@@H](CC(C)C)C(N)=O)[C@@H](C)O [ANOPLIN] (H-GLLKRIKTLL-NH2)    64
3. CO[C@H]1/C=C/O[C@@]2(C)Oc3c(C)c(O)c4c(O)c(c(/C=N/N5CCN(C)CC5)c(O)c4c3C2=O)NC(=O)/C(C)=C\C=C\[C@H](C)[C@H](O)[C@@H](C)[C@@H](O)[C@@H](C)[C@H](OC(C)=O)[C@@H]1C    32
4. CCCCCCCCCCCC(=O)NCC(=O)N[C@@H](CC(C)C)C(=O)N[C@@H](CC(C)C)C(=O)N[C@H](CCCCN)C(=O)N[C@@H](CCCNC(=N)N)C(=O)N[C@H](C(=O)N[C@H](CCCCN)C(=O)N[C@H](C(=O)N[C@@H](CC(C)C)C(=O)N[C@@H](CC(C)C)C(N)=O)[C@@H](C)O)[C@@H](C)CC    8
